# System: Noggin (protein binding on small-molecule microarray)
# ASSAY_EXPLANATION: Noggin binders on small-molecule microarray, primary screen, biochemical, 635/667 nm fluorescence (AID 1095);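 note: score merges 667 nm feature fluorescence with signal to noise over triplicate slides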
# CONDITION_SUMMARY: 635 nm fluorescence, higher = more signal
Classification field: yes (1) = composite z-score at or over 0.2; no (0) = composite z-score under 0.2.

- COMPOUND: "C=C(CCCC)/C(=C/C[C@@H](OC(C)=O)c1ccc(OCCO)cc1)c1cnc2ccccc2c1"
  ASSAYED_TARGET: "Noggin (protein binding on small-molecule microarray)"
  CAT: "yes (1)"
- COMPOUND: "CN1C(=O)C2C=CC(C(O)c3ccco3)N(Nc3ccccc3)C2C1=O (stereo not drawn)"
  ASSAYED_TARGET: "Noggin (protein binding on small-molecule microarray)"
  CAT: "no (0)"
- COMPOUND: "C=C(COC)/C(=C/C[C@@H](OC(C)=O)c1ccc(OCCO)cc1)c1cnc2ccccc2c1"
  ASSAYED_TARGET: "Noggin (protein binding on small-molecule microarray)"
  CAT: "yes (1)"
- COMPOUND: "COc1cc2c(cc1O)C(C1CC1)N(Cc1sc3ccccc3c1Cl)CC2 (stereo not drawn)"
  ASSAYED_TARGET: "Noggin (protein binding on small-molecule microarray)"
  CAT: "no (0)"
- COMPOUND: "COc1cc2c(cc1OC)CN(C(=O)[C@@H]1[C@H]3C(=O)O[C@H](c4ccccc4)[C@H](c4ccccc4)N3[C@H](c3ccc(O)cc3)[C@@]13C(=O)Nc1ccccc13)CC2"
  ASSAYED_TARGET: "Noggin (protein binding on small-molecule microarray)"
  CAT: "yes (1)"
- COMPOUND: "[N-]=[N+]=NCc1ccccc1[C@@H]1OC(c2ccc(OCCCO)cc2)=N[C@]1(Cc1ccccc1)C(=O)NCC(O)CO (stereo partly drawn)"
  ASSAYED_TARGET: "Noggin (protein binding on small-molecule microarray)"
  CAT: "yes (1)"
- COMPOUND: "CC(C)C(=C=CC[C@@H](O)c1ccc(OCCO)cc1)C[C@@H](O)COCc1ccccc1"
  ASSAYED_TARGET: "Noggin (protein binding on small-molecule microarray)"
  CAT: "yes (1)"
- COMPOUND: "C=C(CCCC)/C(=C/C[C@H](OC(C)=O)c1ccccc1OCCO)c1cc(C(=O)OC)ccc1OC"
  ASSAYED_TARGET: "Noggin (protein binding on small-molecule microarray)"
  CAT: "no (0)"

----------
# ASSAY_EXPLANATION: basal MM1S mitochondrial membrane potential changes, profiling panel, cell-based, JC-1 fluorescence, 24 h, 100 nL compound (AID 1170); note: test concentration not given here
# CONDITION_SUMMARY: higher = more signal
Classification field: 1.0 = z-score at or over -0.4; 0.0 = z-score under -0.4.

- MOLECULE: "CCCCCN1CC=CC23O[C@@H]4C=CCCOC(=O)C4[C@H]2C(=O)N(CCCCCO)[C@@H]3C1=O (stereo partly specified)"
  CAT: 0.0
- MOLECULE: "COCCOC(=O)N1C(=O)[C@@]2(c3cc(C#Cc4ccc(OC)cc4)ccc31)[C@H](c1ccccc1OCCO)N1[C@H](c3ccccc3)[C@H](c3ccccc3)OC(=O)[C@H]1[C@@H]2C(=O)NC[C@H](O)c1ccccc1"
  CAT: 0.0
- MOLECULE: "COC(=O)[C@@]1(Cc2ccc(OC)cc2)[C@H]2c3cc(C(=O)N(C)C)n(Cc4ccc(S(C)(=O)=O)cc4)c3C[C@H]2CN1C(=O)c1ccccc1"
  CAT: 0.0
- MOLECULE: "C=CCOC(=O)[C@H]1[C@@H]2C(=O)O[C@@H](c3ccccc3)[C@@H](c3ccccc3)N2[C@@H](c2ccc(OCCOC(=O)[C@H]3C[C@H]4C(=O)N[C@@H](CCCCNC(C)=O)C(=O)N4[C@H]3c3cccc(OCCO)c3)cc2)[C@]12C(=O)Nc1ccccc12"
  CAT: 0.0
- MOLECULE: "C=CCN1C(=O)[C@]2(O[C@H](CCn3cc([C@H](O)c4ccccc4)nn3)[C@@H]([Si](C)(C)c3ccc(OC)cc3)[C@@H]2C)c2ccccc21"
  CAT: 0.0
- MOLECULE: "C=CC(=C)[C@H]1Oc2ccccc2S(=O)(=O)N2CCC[C@@H]12"
  CAT: 1.0
- MOLECULE: "CN(C)CCCCCCNC(=O)[C@H]1C[C@H]2C(=O)N[C@@H](CCCCN)C(=O)N2[C@H]1c1cccc(OCCO)c1"
  CAT: 1.0
- MOLECULE: "C=CCOC(=O)[C@H]1[C@@H]2C(=O)O[C@@H](c3ccccc3)[C@@H](c3ccccc3)N2[C@@H](c2ccc(OCCOC(=O)[C@H]3C[C@H]4C(=O)N[C@@H](CCCC[N+](C)(C)C)C(=O)N4[C@H]3c3ccc(O)cc3)cc2)[C@]12C(=O)Nc1ccc(I)cc12"
  CAT: 1.0
- MOLECULE: "C=CCN1C(=O)[C@@]2(Cc3ccccc31)N=C(c1ccc(OCCCO)cc1)O[C@H]2c1ccccc1"
  CAT: 0.0
- MOLECULE: "CC(C)[Si](C#Cc1ccc(Oc2ccccc2)cc1)(O[Si](C#Cc1ccc(Oc2ccccc2)cc1)(C(C)C)C(C)C)C(C)C"
  CAT: 1.0
- MOLECULE: "COC(=O)[C@@]1(Cc2ccc(OC)cc2)[C@H]2c3cc(C(=O)N4CCCC4)n(CCN4CNCC4=O)c3C[C@H]2CN1C(=O)c1ccccc1"
  CAT: 1.0
- MOLECULE: "CN(C)CCCC[C@@H]1NC(=O)[C@@H]2C[C@H](C(=O)NCCCCCCN)[C@H](c3cccc(OCCO)c3)N2C1=O"
  CAT: 1.0
- MOLECULE: "C=C(CCCC)/C(=C/C[C@@H](OC(=O)c1ccncc1)c1ccc(OCCO)cc1)c1cc(C(=O)OC)ccc1OC"
  CAT: 0.0
- MOLECULE: "Cc1ccc(S[C@]2(C(=O)NCCCN(C)C)CC(=O)N(Cc3ccccc3C(F)(F)F)[C@@H]2c2ccc(CO)cc2)cc1"
  CAT: 1.0
- MOLECULE: "O=C(NCCN1CCOCC1)[C@@H]1c2ccccc2C(=O)N(C2CCCCC2)[C@H]1c1ccc(CO)cc1"
  CAT: 1.0
- MOLECULE: "C=CCC(OC(C)=O)[C@@H]1[C@@H](N(Cc2cccc3ccccc23)C(=O)c2ccc(-c3ccccc3)cc2)c2cc(OCCCO)ccc2N1C(=O)c1ccc2ccccc2c1 (stereo partly specified)"
  CAT: 1.0
- MOLECULE: "COC(=O)[C@@]1(Cc2ccc(OC)cc2)[C@H]2c3cc(C(=O)N(C)C)n(C)c3C[C@H]2CN1C(=O)c1ccccc1"
  CAT: 0.0
- MOLECULE: "COC(=O)[C@@]1(Cc2ccc(OC)cc2)[C@H]2c3cc(C(=O)N(C)C)n(Cc4ccccn4)c3C[C@H]2CN1C(=O)c1ccccc1"
  CAT: 1.0
- MOLECULE: "NC(=O)[C@@H]1[C@H]2C(=O)O[C@H](c3ccccc3)[C@H](c3ccccc3)N2[C@H](c2ccc(O)cc2)[C@@]12C(=O)Nc1ccccc12"
  CAT: 1.0
- MOLECULE: "CCCCCCc1nc(-c2ccc(OC)nc2)cc2c1[Si](C(C)C)(C(C)C)O[C@H]2c1ccccc1"
  CAT: 1.0
- MOLECULE: "CCCC[C@@H]1C[C@H]1[C@@H](NC(=O)C(C)(C)C)c1ccc(C(F)(F)F)cc1"
  CAT: 0.0
- MOLECULE: "COC(=O)C(CC#Cc1ccc2c(c1)[C@]1(C(=O)N2)[C@H](C(=O)Nc2nc3ccccc3s2)[C@H]2C(=O)O[C@H](c3ccccc3)[C@H](c3ccccc3)N2[C@@H]1c1ccc(O)cc1)C(=O)OC"
  CAT: 0.0
- MOLECULE: "COCCOC(=O)N1C(=O)[C@@]2(c3cc(C#CCC(C(=O)OC)C(=O)OC)ccc31)[C@H](C(=O)N1CCN(c3ncccn3)CC1)[C@H]1C(=O)O[C@H](c3ccccc3)[C@H](c3ccccc3)N1[C@@H]2c1ccccc1OCCO"
  CAT: 0.0
- MOLECULE: "N#Cc1ccc(NN2C(C(O)C(c3ccccc3)c3ccccc3)C=CC3C(=O)N(c4ccccc4)C(=O)C32)cc1 (stereo unspecified)"
  CAT: 1.0
- MOLECULE: "CCCC#C[Si](O[C@H](CC)c1cn(Cc2cccc(Cl)c2)nn1)(C(C)C)C(C)C"
  CAT: 0.0
- MOLECULE: "Cc1ccc(N2C(=O)c3ccccc3[C@@H](C(=O)NC3CC3)[C@@H]2c2ccc(CO)cc2)nc1"
  CAT: 0.0
